Cited source: ChEMBL document CHEMBL4837241

Biological target: UniProt Q8TDU6
Assay: Agonist activity at N-terminal HA-tagged human TGR5 expressed in HEK293 cells assessed as […] in intracellular cAMP levels incubated for 30 mins by Lance Ultra cAMP assay relative to control
Type: functional, cell-based
Conditions: filed as agonist
valueKind: Emax (%)
Could you give me the number in %? Just the number is fine.

Prompt: Reported Emax for CC(C)[C@@H]1CC[C@]2(C(=O)OCC(=O)O)CC[C@]3(C)[C@H](CC[C@@H]4[C@@]5(C)CC[C@@H](OC(=O)NC6CC6)C(C)(C)[C@@H]5CC[C@]43C)[C@@H]12 : what is it?
Response: 98

Prompt: Reported Emax for CC(C)[C@@H]1CC[C@]2(C(=O)O)CC[C@]3(C)[C@H](CC[C@@H]4[C@@]5(C)CC[C@@H](OC(=O)CO)C(C)(C)[C@@H]5CC[C@]43C)[C@@H]12 : what is it?
Response: 100

Prompt: Reported Emax for CO/N=C(/C)[C@@H]1CC[C@]2(C(=O)O)CC[C@]3(C)[C@H](CC[C@@H]4[C@@]5(C)CC[C@@H](OC(=O)NC6CC6)C(C)(C)[C@@H]5CC[C@]43C)[C@@H]12 : what is it?
Response: 97

Prompt: Reported Emax for CNC(=O)O[C@@H]1CC[C@]2(C)[C@H]3CC[C@@H]4[C@H]5[C@H](C(C)C)CC[C@]5(C(=O)O)CC[C@@]4(C)[C@]3(C)CC[C@H]2C1(C)C : what is it?
Response: 98

Prompt: Reported Emax for CC(C)[C@@H]1CC[C@]2(C(=O)O)CC[C@]3(C)[C@H](CC[C@@H]4[C@@]5(C)CC[C@@H](OC(=O)NC6CCC6)C(C)(C)[C@@H]5CC[C@]43C)[C@@H]12 : what is it?
Response: 92

###

Target: G-protein coupled bile acid receptor 1 (Homo sapiens, UniProt Q8TDU6)
Sequence (Q8TDU6 whole entry): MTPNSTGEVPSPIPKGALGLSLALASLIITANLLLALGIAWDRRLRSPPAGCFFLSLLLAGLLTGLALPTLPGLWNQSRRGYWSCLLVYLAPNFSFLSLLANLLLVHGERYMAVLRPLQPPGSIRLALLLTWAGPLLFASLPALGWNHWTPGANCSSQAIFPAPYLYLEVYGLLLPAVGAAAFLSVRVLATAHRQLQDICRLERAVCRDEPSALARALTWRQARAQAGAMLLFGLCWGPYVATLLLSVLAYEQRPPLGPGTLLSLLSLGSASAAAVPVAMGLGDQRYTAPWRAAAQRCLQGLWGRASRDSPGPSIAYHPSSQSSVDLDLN
Test: Agonist activity at N-terminal HA-tagged human TGR5 expressed in HEK293 cells assessed as […] in intracellular cAMP levels incubated for 30 mins by Lance Ultra cAMP assay
Type: functional, cell-based
valueKind: EC50 (nM)
Could you give me the number in nM? Just the number is fine.

Prompt: Look up EC50 with G-protein coupled bile acid receptor 1 (Homo sapiens, UniProt Q8TDU6) for this compound: CCCNC(=O)O[C@@H]1CC[C@]2(C)[C@H]3CC[C@@H]4[C@H]5[C@H](C(C)C)CC[C@]5(C(=O)O)CC[C@@]4(C)[C@]3(C)CC[C@H]2C1(C)C
Response: 26.9

Prompt: Look up EC50 with G-protein coupled bile acid receptor 1 (Homo sapiens, UniProt Q8TDU6) for this compound: CC(C)[C@@H]1CC[C@]2(NC(=O)NCC(=O)O)CC[C@]3(C)[C@H](CC[C@@H]4[C@@]5(C)CC[C@@H](OC(=O)NC6CC6)C(C)(C)[C@@H]5CC[C@]43C)[C@@H]12
Response: 174

Prompt: Look up EC50 with G-protein coupled bile acid receptor 1 (Homo sapiens, UniProt Q8TDU6) for this compound: CC1(C)[C@H](OC(=O)NC2CC2)CC[C@]2(C)[C@H]3CC[C@@H]4[C@H]5[C@H]([C@@]6(C)CO6)CC[C@]5(C(=O)O)CC[C@@]4(C)[C@]3(C)CC[C@@H]12
Response: 18.6

Prompt: Look up EC50 with G-protein coupled bile acid receptor 1 (Homo sapiens, UniProt Q8TDU6) for this compound: COCC(=O)O[C@@H]1CC[C@]2(C)[C@H]3CC[C@@H]4[C@H]5[C@H](C(C)C)CC[C@]5(C(=O)O)CC[C@@]4(C)[C@]3(C)CC[C@H]2C1(C)C
Response: 25.2

Prompt: Look up EC50 with G-protein coupled bile acid receptor 1 (Homo sapiens, UniProt Q8TDU6) for this compound: CCCC(=O)O[C@@H]1CC[C@]2(C)[C@H]3CC[C@@H]4[C@H]5[C@H](C(C)C)CC[C@]5(C(=O)O)CC[C@@]4(C)[C@]3(C)CC[C@H]2C1(C)C
Response: 83.1
